# system.under.test: human CXCR3A (Homo sapiens (Human), UniProt P49682)
# Sequence (P49682 whole entry): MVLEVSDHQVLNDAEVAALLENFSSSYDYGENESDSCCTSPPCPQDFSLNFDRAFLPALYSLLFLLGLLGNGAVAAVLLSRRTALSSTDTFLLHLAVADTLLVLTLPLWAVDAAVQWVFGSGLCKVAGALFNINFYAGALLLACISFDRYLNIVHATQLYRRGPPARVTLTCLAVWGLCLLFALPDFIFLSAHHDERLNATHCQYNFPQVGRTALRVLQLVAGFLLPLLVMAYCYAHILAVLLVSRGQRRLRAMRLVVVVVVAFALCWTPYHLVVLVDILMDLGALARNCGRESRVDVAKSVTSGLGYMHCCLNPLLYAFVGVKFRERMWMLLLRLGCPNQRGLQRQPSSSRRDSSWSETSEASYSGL
# assay.overview: FLIPR assay (CXCL10-induced calcium signal)
# experimental.parameters: CHO-K1 cells expressing human CXCR3A coupled to Galpha(16); CXCL10 agonist 20 nM; mean values
quantity.name: IC50 (nM)

O=C(Cn1cnc(C2CC2)n1)N1CCN(c2sc(C(F)(F)F)nc2-c2cnc(C(F)(F)F)nc2)C[C@H]1CO    3
Cc1ccn(CC(=O)N2CCN(c3sc(C(F)(F)F)nc3-c3cnc(C(F)(F)F)nc3)C[C@H]2CCO)n1    1
Cc1ncn(CC(=O)N2CCN(c3sc(C(F)(F)F)nc3-c3cnc(C(F)(F)F)nc3)C[C@H]2CCO)n1    2.9
O=C(Cn1cnc(C2CC2)n1)N1CCN(c2sc(C(F)(F)F)nc2-c2cnc(C(F)(F)F)nc2)C[C@H]1CCO    4.4

(a) O=C(Cn1cnc(C2CCC2)n1)N1CCN(c2sc(C(F)(F)F)nc2-c2cnc(C(F)(F)F)nc2)C[C@H]1CCO
(b) Cc1ccn(CC(=O)N2CCN(c3sc(C(F)(F)F)nc3-c3cnc(C(F)(F)F)nc3)C[C@@H]2CO)n1
(c) Cc1ncnn1CC(=O)N1CCN(c2sc(C(F)(F)F)nc2-c2cnc(C(F)(F)F)nc2)C[C@H]1CCO
Prompt: Returns the items ordered by IC50, from maximum to minimum. Answer by writing out the labels in the requested order.
Completion: c, a, b
(c: 8 nM, a: 5.5 nM, b: 1.6 nM)

The reported measurements were obtained from patent US10053457B2.
